# tgt: Muscarinic acetylcholine receptor M5 (Homo sapiens)
# Sequence (whole entry): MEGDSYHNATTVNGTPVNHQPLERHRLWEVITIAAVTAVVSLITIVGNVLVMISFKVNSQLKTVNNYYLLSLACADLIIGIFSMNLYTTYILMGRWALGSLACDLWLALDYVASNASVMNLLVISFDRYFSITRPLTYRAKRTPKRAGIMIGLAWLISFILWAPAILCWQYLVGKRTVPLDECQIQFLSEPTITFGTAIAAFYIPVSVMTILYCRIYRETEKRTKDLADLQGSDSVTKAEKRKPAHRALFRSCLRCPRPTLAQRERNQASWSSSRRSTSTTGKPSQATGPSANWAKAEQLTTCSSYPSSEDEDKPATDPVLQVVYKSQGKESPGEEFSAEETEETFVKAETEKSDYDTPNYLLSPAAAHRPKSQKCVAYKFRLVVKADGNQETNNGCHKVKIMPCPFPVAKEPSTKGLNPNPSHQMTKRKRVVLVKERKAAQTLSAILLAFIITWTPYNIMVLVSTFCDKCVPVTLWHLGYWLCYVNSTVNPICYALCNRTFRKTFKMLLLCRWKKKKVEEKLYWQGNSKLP
# assay explanation: Positive allosteric modulator activity at human muscarinic acetylcholine receptor subtype 5 expressed in CHO cells by calcium mobilization assay relative to acetylcholine
# Type: functional, cell-based
quantity name: %max

{"mol": "C=CCN(Cc1ccccc1C(F)(F)F)C(=O)C1CCN(S(=O)(=O)c2ccc3[nH]ncc3c2)CC1", "experimental value": "79%"}
{"mol": "CCN(C(=O)C1CCN(S(=O)(=O)c2ccc3c(c2)CCO3)CC1)[C@H](C)c1ccccc1", "experimental value": "88%"}
{"mol": "CCN(Cc1ccccc1)C(=O)C1CCN(S(=O)(=O)c2ccccc2)CC1", "experimental value": "69%"}

Consider now this further compound.
Input: Could you share which %max value was measured for "O=C(C1CCN(S(=O)(=O)c2ccc3[nH]ncc3c2)CC1)N(Cc1ccccc1C(F)(F)F)CC1CC1" ?
Output: 102%

====

# assay explanation: Plasma clearance in Sprague-Dawley rat 1 mg/kg, iv administered as single dose by LC/MS/MS utilizing electrospray ionization method
# Format: ADME, organism-based
# Design: dose 1 mg/kg, route intravenous
quantity name: clearance (mL/min/kg)
Write down the numeric answer in mL/min/kg and omit the unit.

Input: Could you share which clearance value was measured for "CCN(Cc1ccccc1C(F)(F)F)C(=O)C1CCN(S(=O)(=O)c2ccc3[nH]ncc3c2)CC1" ?
Output: 66

====

# tgt: Muscarinic acetylcholine receptor M2 (Rattus norvegicus, UniProt P10980)
# Sequence (P10980 whole entry): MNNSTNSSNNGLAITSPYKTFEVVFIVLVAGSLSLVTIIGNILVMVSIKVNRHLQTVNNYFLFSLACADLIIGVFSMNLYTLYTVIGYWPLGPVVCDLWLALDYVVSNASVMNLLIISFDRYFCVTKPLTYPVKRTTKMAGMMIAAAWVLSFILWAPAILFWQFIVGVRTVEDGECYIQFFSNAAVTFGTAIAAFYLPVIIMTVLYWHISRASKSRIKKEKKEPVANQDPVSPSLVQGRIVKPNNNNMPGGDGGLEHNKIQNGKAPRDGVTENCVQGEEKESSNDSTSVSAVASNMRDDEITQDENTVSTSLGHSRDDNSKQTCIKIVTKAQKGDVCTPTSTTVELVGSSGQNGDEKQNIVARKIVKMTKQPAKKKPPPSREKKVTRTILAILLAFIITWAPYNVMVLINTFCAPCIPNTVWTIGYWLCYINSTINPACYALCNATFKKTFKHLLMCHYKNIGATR
# assay explanation: Activity at rat muscarinic acetylcholine receptor subtype 2 expressed in CHO cells co-transfected with chimeric Gqi5 by calcium mobilization assay
quantity name: EC50

Input: Could you share which EC50 value was measured for "CCN(Cc1ccccc1C(F)(F)F)C(=O)C1CCN(S(=O)(=O)c2ccc3[nH]ncc3c2)CC1" ?
Output: > 30 µM

====

# tgt: Muscarinic acetylcholine receptor M1 (Homo sapiens, UniProt P11229)
# Sequence (P11229 whole entry): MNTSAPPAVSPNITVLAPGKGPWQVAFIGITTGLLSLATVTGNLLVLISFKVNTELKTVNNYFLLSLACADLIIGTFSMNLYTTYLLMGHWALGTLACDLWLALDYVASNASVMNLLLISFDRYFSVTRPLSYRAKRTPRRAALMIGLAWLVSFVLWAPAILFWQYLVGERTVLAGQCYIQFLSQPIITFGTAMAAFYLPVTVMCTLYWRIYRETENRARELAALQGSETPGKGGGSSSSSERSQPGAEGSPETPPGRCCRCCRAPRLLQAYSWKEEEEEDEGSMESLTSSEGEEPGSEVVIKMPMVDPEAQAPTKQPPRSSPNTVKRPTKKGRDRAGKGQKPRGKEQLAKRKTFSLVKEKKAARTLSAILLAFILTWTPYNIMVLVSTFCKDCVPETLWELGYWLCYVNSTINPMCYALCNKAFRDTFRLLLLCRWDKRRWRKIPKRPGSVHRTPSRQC
# assay explanation: Activity at human muscarinic acetylcholine receptor subtype 1 expressed in CHO cells by calcium mobilization assay
quantity name: EC50 (µM)
Write down the numeric answer in µM and omit the unit.

Input: Could you share which EC50 value was measured for "CCN(Cc1ccccc1C(F)(F)F)C(=O)C1CCN(S(=O)(=O)c2ccc3[nH]ncc3c2)CC1" ?
Output: 5.4

====

# tgt: Muscarinic acetylcholine receptor M3 (Rattus norvegicus, UniProt P08483)
# Sequence (P08483 whole entry): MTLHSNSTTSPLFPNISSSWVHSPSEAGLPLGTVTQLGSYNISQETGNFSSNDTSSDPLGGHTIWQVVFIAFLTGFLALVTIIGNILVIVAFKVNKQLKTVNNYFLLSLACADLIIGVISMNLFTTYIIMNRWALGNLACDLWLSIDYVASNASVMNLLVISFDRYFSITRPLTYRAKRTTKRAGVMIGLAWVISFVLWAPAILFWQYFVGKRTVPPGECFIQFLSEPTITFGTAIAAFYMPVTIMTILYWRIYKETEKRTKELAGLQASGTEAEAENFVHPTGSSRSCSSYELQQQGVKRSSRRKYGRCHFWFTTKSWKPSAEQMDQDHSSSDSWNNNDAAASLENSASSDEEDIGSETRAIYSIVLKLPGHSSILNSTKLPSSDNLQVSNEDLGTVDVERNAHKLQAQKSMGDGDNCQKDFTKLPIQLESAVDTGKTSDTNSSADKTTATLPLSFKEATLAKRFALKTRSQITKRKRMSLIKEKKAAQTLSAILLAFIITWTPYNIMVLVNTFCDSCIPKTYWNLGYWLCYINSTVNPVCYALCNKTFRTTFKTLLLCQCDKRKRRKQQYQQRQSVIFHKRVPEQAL
# assay explanation: Activity at rat muscarinic acetylcholine receptor subtype 3 expressed in CHO cells by calcium mobilization assay
quantity name: pEC50
Bear in mind: pEC50 is minus log10 of a mol/L concentration; give just that figure.

Input: Entry "CCN(Cc1ccccc1C(F)(F)F)C(=O)C1CCN(S(=O)(=O)c2ccc3[nH]ncc3c2)CC1" , system Muscarinic acetylcholine receptor M3 (Rattus norvegicus, UniProt P08483): what pEC50 was measured?
Output: 5.51
